- System: RXF 393 renal
- assay.method.text: NCI tumour cell line growth inhibition, 48 h
measured.parameter: TGI (µM)
All answers are understood in µM, so give the number only.

Enquiry: Please supply the value of reported TGI for the item "CCSc1nnc(Sc2c3ccccc3nc3ccccc23)s1"
Return: 35.3

Enquiry: Please supply the value of reported TGI for the item CC(C)CCCC(C)[C@H]1CC[C@H]2n3c(nnc3-c3ccccc3)CCC[C@]12C (stereo not given in full)
Return: 27

Enquiry: Please supply the value of reported TGI for the item "CC[C@@]1(O)C(=O)OCc2c1cc1n(c2=O)Cc2c-1nc1ccccc1c2/C=N\NC(=O)C[n+]1ccccc1"
Return: 2.79

Enquiry: Please supply the value of reported TGI for the item "CC/C=C\C[C@@H]1C/C=C2/C(=O)C=C[C@H]2C/C=C\CCCC(=O)O1"
Return: 1.73

Enquiry: Please supply the value of reported TGI for the item CC(C)=CCc1c(O)cc(O)c2c1OC(c1ccc(O)cc1)C(O)C2=O (stereo not given)
Return: 49.9

Enquiry: Please supply the value of reported TGI for the item "CCC#CC[C@H]1C/C=C2/C(=O)C=C[C@@H]2C/C=C\CCCC(=O)O1"
Return: 1.96

###

For each entry below, report its TGI value.
- System: COLO 205 colon
- assay.method.text: NCI tumour cell line growth inhibition, 48 h

Enquiry: Look up and report TGI, with COLO 205 colon as system, for Cc1ccccc1N(CCC#N)C1=NN(C(=O)CC(=O)Nc2ccccc2)C(c2ccccc2)C1 (stereo unspecified)
Return: > 100 µM

Enquiry: Look up and report TGI, with COLO 205 colon as system, for COc1cc(C2=NN(C(C)=O)C(c3ccc(OC(C)=O)cc3OC(C)=O)O2)c(OC(C)=O)c2ccccc12 (stereo unspecified)
Return: 10.1 µM

Enquiry: Look up and report TGI, with COLO 205 colon as system, for "CCOC(=O)C1(CO)CSCCSC1"
Return: > 100 µM

Enquiry: Look up and report TGI, with COLO 205 colon as system, for "CN(C)c1ccc(N)cc1"
Return: 4.54 µM

Enquiry: Look up and report TGI, with COLO 205 colon as system, for "CCOC(=O)NC(=O)c1cn(CCOCCOC(=O)NCCCCCCNC(=O)OCCOCCn2cc(C(=O)NC(=O)OCC)c(=O)[nH]c2=O)c(=O)[nH]c1=O"
Return: > 100 µM

Enquiry: Look up and report TGI, with COLO 205 colon as system, for "CSC1=N/C(=C\c2ccc(C)cc2)C(=O)N1"
Return: > 100 µM

Enquiry: Look up and report TGI, with COLO 205 colon as system, for "O=C(O)c1cccc(Nc2c(C(=O)O)cccc2[N+](=O)[O-])c1"
Return: > 100 µM

Enquiry: Look up and report TGI, with COLO 205 colon as system, for "O=c1cccccc1NCCCNc1cccccc1=O"
Return: > 100 µM

Enquiry: Look up and report TGI, with COLO 205 colon as system, for "COc1ccc2c(c1)C(=O)c1c-2n(CCCn2ccnc2)c(=O)c2ccccc12"
Return: 14.3 µM

Enquiry: Look up and report TGI, with COLO 205 colon as system, for "Cc1ccc(S(=O)(=O)n2c(-c3ccccc3)c(-c3ccccc3)c3ccccc32)cc1"
Return: > 100 µM

Enquiry: Look up and report TGI, with COLO 205 colon as system, for "CC(=O)[CH-]C(=O)c1ccccc1.CC(=O)[CH-]C(=O)c1ccccc1.O=C([O-])c1ccc([O-])cc1.O=C([O-])c1ccc([O-])cc1.[Ti+4]"
Return: 40.1 µM

Enquiry: Look up and report TGI, with COLO 205 colon as system, for "Cc1ccc(-c2c(C#N)c(-c3ccccc3)n(NS(=O)(=O)c3ccc(C)cc3)c(=O)c2C#N)cc1"
Return: > 100 µM

Enquiry: Look up and report TGI, with COLO 205 colon as system, for "CC[C@@]1(O)C(=O)OCc2c1cc1n(c2=O)Cc2c-1nc1ccccc1c2/C=N\NC(=O)C[n+]1ccccc1"
Return: > 100 µM

Enquiry: Look up and report TGI, with COLO 205 colon as system, for "Cc1cc(C)c(C(=O)CC(=O)c2cccnc2)c(C)c1"
Return: > 100 µM

Enquiry: Look up and report TGI, with COLO 205 colon as system, for "CN(C)P(=O)(/C(N)=N/Nc1ccc([N+](=O)[O-])cc1)N(C)C"
Return: > 100 µM

Enquiry: Look up and report TGI, with COLO 205 colon as system, for "COc1cc[nH]c1/C=C1\C(=O)Nc2ccccc21"
Return: > 25 µM

Enquiry: Look up and report TGI, with COLO 205 colon as system, for "Cc1ccc(N(C(=O)CC(=O)NN)C(=O)c2ccccc2Cl)cc1"
Return: > 100 µM

Enquiry: Look up and report TGI, with COLO 205 colon as system, for "O=C1C2=Cc3ccccc3CCN2c2ccccc21"
Return: > 56 µM

Enquiry: Look up and report TGI, with COLO 205 colon as system, for "Cc1ccc2nc3c(C(=O)NCCN(C)C)cccc3nc2c1"
Return: > 22.4 µM

Enquiry: Look up and report TGI, with COLO 205 colon as system, for "Cn1c(-c2cccs2)cc(-c2cccs2)c1-c1cccs1"
Return: 34.1 µM

Enquiry: Look up and report TGI, with COLO 205 colon as system, for "CCN(CC)c1ccc(C(=N)c2ccc(N(CC)CC)cc2)cc1"
Return: 1.32 µM

Enquiry: Look up and report TGI, with COLO 205 colon as system, for NC1=NN(c2ccccc2)C(=O)C1C(=O)CCC(=O)Nc1cccc(C(F)(F)F)c1 (stereo unspecified)
Return: > 100 µM

Enquiry: Look up and report TGI, with COLO 205 colon as system, for CC1CN1CC(O)C(O)CN1CC1C (stereo unspecified)
Return: > 38.5 µM

Enquiry: Look up and report TGI, with COLO 205 colon as system, for "N#Cc1ccc(NC(=NCC(=O)O)Nc2cccc3ccccc23)cc1"
Return: > 10 µM

Enquiry: Look up and report TGI, with COLO 205 colon as system, for CC1=NN(c2ccccc2)C2(C1)C(Cl)C(=O)N2c1nc2ccccc2s1 (stereo unspecified)
Return: 80.6 µM

Enquiry: Look up and report TGI, with COLO 205 colon as system, for "CCOc1cccc(C=Nc2ccccc2SSc2ccccc2N=Cc2cccc(OCC)c2O)c1O"
Return: 12.4 µM

Enquiry: Look up and report TGI, with COLO 205 colon as system, for "O=C(CSc1ncccn1)N/N=C/c1ccccc1OCc1ccccc1"
Return: 38.8 µM

Enquiry: Look up and report TGI, with COLO 205 colon as system, for "N.N.N.N.N.O=C([O-])c1nn[n-]n1.[Cl-].[Co+3]"
Return: > 100 µM

Enquiry: Look up and report TGI, with COLO 205 colon as system, for "Cc1ccc(C(=NN=C(N)N)c2ccc(C)cc2)cc1"
Return: 1.41 µM

Enquiry: Look up and report TGI, with COLO 205 colon as system, for "Nc1ncc(-c2cnn(CCO)c2)c2scc(-c3ccc(NC(=O)Nc4cccc(F)c4)cc3)c12"
Return: < 0.0307 µM

Enquiry: Look up and report TGI, with COLO 205 colon as system, for "CCCN(CCc1ccc(-c2ccccc2)cc1)CCc1ccc2n[nH]nc2c1"
Return: 9.07 µM

Enquiry: Look up and report TGI, with COLO 205 colon as system, for COc1c2c(cc3nc4ccccc4nc13)CCC(C(C)(C)O)C2 (stereo unspecified)
Return: > 100 µM

Enquiry: Look up and report TGI, with COLO 205 colon as system, for "CCOC(=O)CN=c1nc(SC)sc2c(C(=O)OCC)nc(Sc3ccccc3)n12"
Return: > 100 µM

Enquiry: Look up and report TGI, with COLO 205 colon as system, for "CCS(=O)(=O)c1ccc(OC)c(Nc2ncc(-c3cccc(OC)c3)o2)c1"
Return: > 25 µM

Enquiry: Look up and report TGI, with COLO 205 colon as system, for "Cc1cc(C)nc(NS(=O)(=O)c2ccc(Nc3c4ccccc4nc4c(C(=O)Nc5ccc(S(=O)(=O)Nc6cc(C)on6)cc5)cccc34)cc2)n1"
Return: 34.1 µM

Enquiry: Look up and report TGI, with COLO 205 colon as system, for "CCN(CC)CCN1CC(O)=C(c2nc(-c3ccc(Cl)cc3)cs2)C1=N"
Return: 4 µM

Reference source for all entries: PubChem BioAssay (NCI)
